System: Mus musculus
method.notes: Anticonvulsant activity in ip dosed albino Carworth Farms No. 1 mouse measured at 0.5 hrs by 6Hz (32 mA) psychomotor seizure test
Format: functional
conditions: Carworth Farms No. 1, ip
endpoint.label: ED50 (mg/kg)
Numeric only. Scale: mg/kg

GET /values?readout=ED50&item= "COC[C@@H](NC(C)=O)C(=O)NCc1ccc(Oc2cccc(C)c2)cc1" 100

GET /values?readout=ED50&item= COC[C@@H](NC(C)=O)C(=O)NCc1ccccc1 [LACOSAMIDE] 10

====

method.notes: Behavioural toxicity in ip dosed albino Sprague-Dawley rat measured at 1 hr
Format: organism-based
conditions: in vivo
endpoint.label: TD50 at 1 h (mg/kg)
Numeric only. Scale: mg/kg

GET /values?readout=TD50 at 1 h&item= "COC[C@@H](NC(C)=O)C(=O)NCc1ccc(Oc2cccc(OC)c2)cc1" 120
